# credit: patent US3996359A

Items are presented alongside their recorded Dose required to obtain 50% inhibition of Granuloma growth.
System: rats subjected to adrenalectomy (granuloma around implanted cotton wads)
Assay: granulom test (cotton-pellet test) on rats subjected to adrenalectomy: granuloma growth, thymus weight, body weight increase
Assay type: in vivo, rat (Sprague-Dawley)
Details: Table 3; adrenalectomized young male Sprague-Dawley rats, topical in implanted cotton wads, day 8

Solved entries:
INSERT INTO measurements (compound, systemundertest, observedvalue) VALUES
  ('CCCCCC1O[C@@H]2C[C@H]3[C@@H]4CCC5=CC(=O)C=C[C@]5(C)[C@@]4(F)[C@@H](O)C[C@]3(C)[C@]2(C(=O)CO)O1 (single isomer, unassigned) [5 A]', 'rats subjected to adrenalectomy (granuloma around implanted cotton wads)', '30 γ/animal'),
  ('CC1O[C@@H]2C[C@H]3[C@@H]4CCC5=CC(=O)C=C[C@]5(C)[C@@]4(F)[C@@H](O)C[C@]3(C)[C@]2(C(=O)CO)O1 (single isomer, unassigned) [1 B]', 'rats subjected to adrenalectomy (granuloma around implanted cotton wads)', '30 γ/animal');

Exercise: Tell me the measured Dose required to obtain 50% inhibition of Granuloma growth of CCCCC(=O)OCC(=O)[C@@]12OC(CCC)O[C@@H]1C[C@H]1[C@@H]3CCC4=CC(=O)C=C[C@]4(C)[C@@]3(F)[C@@H](O)C[C@@]12C (single isomer, unassigned) [22 A] , please.
Key: < 3 γ/animal

* * *

Test system: rats subjected to adrenalectomy (granuloma around implanted cotton wads)
Experiment: granulom test (cotton-pellet test) on rats subjected to adrenalectomy: granuloma growth, thymus weight, body weight increase
Format: in vivo, rat (Sprague-Dawley)
Details: rat, in vivo, 11520 min
Items are presented alongside their recorded Dose required to obtain 50% inhibition of Thymus weight.

Solved entries:
INSERT INTO measurements (compound, systemundertest, observedvalue) VALUES
  ('CCCCC1O[C@@H]2C[C@H]3[C@@H]4CCC5=CC(=O)C=C[C@]5(C)[C@@]4(F)[C@@H](O)C[C@]3(C)[C@]2(C(=O)CO)O1 (single isomer, unassigned) [4 A]', 'rats subjected to adrenalectomy (granuloma around implanted cotton wads)', '100 γ/animal'),
  ('CCCC1O[C@@H]2C[C@H]3[C@@H]4C[C@H](F)C5=CC(=O)C=C[C@]5(C)[C@@]4(F)[C@@H](O)C[C@]3(C)[C@]2(C(=O)CO)O1 (single isomer, unassigned) [8 B]', 'rats subjected to adrenalectomy (granuloma around implanted cotton wads)', '10 γ/animal'),
  ('CCCCC(=O)OCC(=O)[C@@]12OC(CCC)O[C@@H]1C[C@H]1[C@@H]3CCC4=CC(=O)C=C[C@]4(C)[C@@]3(F)[C@@H](O)C[C@@]12C (single isomer, unassigned) [22 B]', 'rats subjected to adrenalectomy (granuloma around implanted cotton wads)', '35 γ/animal');

Exercise: Tell me the measured Dose required to obtain 50% inhibition of Thymus weight of CC1O[C@@H]2C[C@H]3[C@@H]4CCC5=CC(=O)C=C[C@]5(C)[C@@]4(F)[C@@H](O)C[C@]3(C)[C@]2(C(=O)COC(=O)c2cccnc2)O1 (single isomer, unassigned) [17 A] , please.
Key: 45 γ/animal

Exercise: Tell me the measured Dose required to obtain 50% inhibition of Thymus weight of CC1O[C@@H]2C[C@H]3[C@@H]4CCC5=CC(=O)C=C[C@]5(C)[C@@]4(F)[C@@H](O)C[C@]3(C)[C@]2(C(=O)CO)O1 (single isomer, unassigned) [1 A] , please.
Key: 115 γ/animal

Exercise: Tell me the measured Dose required to obtain 50% inhibition of Thymus weight of CC1(C)O[C@@H]2C[C@H]3[C@@H]4CCC5=CC(=O)C=C[C@]5(C)[C@@]4(F)[C@@H](O)C[C@]3(C)[C@]2(C(=O)CO)O1 [Triamcinolone acetonide, reference compound] , please.
Key: 70 γ/animal

* * *

Tested on: rats subjected to adrenalectomy (granuloma around implanted cotton wads)
Assay: granulom test (cotton-pellet test) on rats subjected to adrenalectomy: granuloma growth, thymus weight, body weight increase
Format: in vivo, rat (Sprague-Dawley)
Details: Table 3; adrenalectomized young male Sprague-Dawley rats, topical in implanted cotton wads, day 8
observable: Dose required to obtain 50% inhibition of Granuloma growth

Solved entries:
INSERT INTO measurements (compound, observedvalue) VALUES
  ('CCCCC1O[C@@H]2C[C@H]3[C@@H]4CCC5=CC(=O)C=C[C@]5(C)[C@@]4(F)[C@@H](O)C[C@]3(C)[C@]2(C(=O)CO)O1 (single isomer, unassigned) [4 A]', '< 3 γ/animal'),
  ('CC1O[C@@H]2C[C@H]3[C@@H]4CCC5=CC(=O)C=C[C@]5(C)[C@@]4(F)[C@@H](O)C[C@]3(C)[C@]2(C(=O)COC(=O)c2cccnc2)O1 (single isomer, unassigned) [17 A]', '7 γ/animal'),
  ('CCC1OC2CC3C4CCC5=CC(=O)C=CC5(C)C4(F)C(O)CC3(C)C2(C(=O)CO)O1 (mixture of isomers) [2 A+B]', '35 γ/animal');

Exercise: Query the reported Dose required to obtain 50% inhibition of Granuloma growth for rats subjected to adrenalectomy (granuloma around implanted cotton wads); item: CCCC1OC2CC3C4CCC5=CC(=O)C=CC5(C)C4(F)C(O)CC3(C)C2(C(=O)COC(=O)c2cc3ccccc3o2)O1 (mixture of isomers) [20 A+B]
Key: < 3 γ/animal

* * *

System: rats subjected to adrenalectomy (granuloma around implanted cotton wads)
Assay: granulom test (cotton-pellet test) on rats subjected to adrenalectomy: granuloma growth, thymus weight, body weight increase
Type: in vivo, rat (Sprague-Dawley)
Conditions: rat, in vivo
Items are presented alongside their recorded ED50 thymus weight inhibition.
Quick reminder: number only, in µg/animal, skip the unit.

Solved entries:
INSERT INTO results (compound, observable, unitofmeasurement, observedvalue) VALUES
  ('CCCC1O[C@@H]2C[C@H]3[C@@H]4CCC5=CC(=O)C=C[C@]5(C)[C@H]4[C@@H](O)C[C@]3(C)[C@]2(C(=O)COC(=O)c2cc3ccccc3o2)O1 (single isomer, unassigned) [28 B]', 'ED50 thymus weight inhibition', 'µg/animal', 60),
  ('CC1O[C@@H]2C[C@H]3[C@@H]4CCC5=CC(=O)C=C[C@]5(C)[C@@]4(F)[C@@H](O)C[C@]3(C)[C@]2(C(=O)COC(=O)c2cc3ccccc3o2)O1 (some centres unmarked) [16 B]', 'ED50 thymus weight inhibition', 'µg/animal', 10),
  ('CC1O[C@@H]2C[C@H]3[C@@H]4C[C@H](F)C5=CC(=O)C=C[C@]5(C)[C@@]4(F)[C@@H](O)C[C@]3(C)[C@]2(C(=O)COC(=O)c2cc3ccccc3o2)O1 (some centres unmarked) [23 B]', 'ED50 thymus weight inhibition', 'µg/animal', 4);

Exercise: Tell me the measured ED50 thymus weight inhibition of CCCCC(=O)OCC(=O)[C@@]12OC(CCC)O[C@@H]1C[C@H]1[C@@H]3CCC4=CC(=O)C=C[C@]4(C)[C@@]3(F)[C@@H](O)C[C@@]12C (single isomer, unassigned) [22 A] , please.
Key: 90

Exercise: Tell me the measured ED50 thymus weight inhibition of CCCC1O[C@@H]2C[C@H]3[C@@H]4CCC5=CC(=O)C=C[C@]5(C)[C@@]4(F)[C@@H](O)C[C@]3(C)[C@]2(C(=O)COC(=O)c2cc3ccccc3o2)O1 (single isomer, unassigned) [20 A] , please.
Key: 90

* * *

Tested on: rats subjected to adrenalectomy (granuloma around implanted cotton wads)
Assay: granulom test (cotton-pellet test) on rats subjected to adrenalectomy: granuloma growth, thymus weight, body weight increase
Assay type: in vivo, rat (Sprague-Dawley)
Conditions: Table 3; adrenalectomized young male Sprague-Dawley rats, topical in implanted cotton wads, day 8
observable: Dose required to obtain 50% inhibition of Granuloma growth

Solved entries:
INSERT INTO results (compound, observedvalue) VALUES
  ('CC1O[C@@H]2C[C@H]3[C@@H]4CCC5=CC(=O)C=C[C@]5(C)[C@@]4(F)[C@@H](O)C[C@]3(C)[C@]2(C(=O)COC(=O)c2cc3ccccc3o2)O1 (some centres unmarked) [16 A]', '5 γ/animal'),
  ('CCCCCC1O[C@@H]2C[C@H]3[C@@H]4CCC5=CC(=O)C=C[C@]5(C)[C@H]4[C@@H](O)C[C@]3(C)[C@]2(C(=O)CO)O1 (some centres unmarked) [13 A+B]', '10 γ/animal'),
  ('CCCC1O[C@@H]2C[C@H]3[C@@H]4CCC5=CC(=O)C=C[C@]5(C)[C@H]4[C@@H](O)C[C@]3(C)[C@]2(C(=O)CO)O1 (some centres unmarked) [12 A+B]', '100 γ/animal'),
  ('CCCC1O[C@@H]2C[C@H]3[C@@H]4CCC5=CC(=O)C=C[C@]5(C)[C@@]4(F)[C@@H](O)C[C@]3(C)[C@]2(C(=O)COC(=O)c2cc3ccccc3o2)O1 (single isomer, unassigned) [20 A]', '< 3 γ/animal');

Exercise: Tell me the measured Dose required to obtain 50% inhibition of Granuloma growth of CCCC1O[C@@H]2C[C@H]3[C@@H]4CCC5=CC(=O)C=C[C@]5(C)[C@@]4(F)[C@@H](O)C[C@]3(C)[C@]2(C(=O)COC(=O)c2cccnc2)O1 (single isomer, unassigned) [21 A] , please.
Key: < 3 γ/animal
